These data points were gathered from patent US8883850B2.

tested_target: acetylcholine muscarinic M1 receptor (Homo sapiens)
Construct: expressed in transfected cells; host or cells: CHOnfat (CHO cells; also called CHOK1/hM1)
Sequence (P11229 whole entry): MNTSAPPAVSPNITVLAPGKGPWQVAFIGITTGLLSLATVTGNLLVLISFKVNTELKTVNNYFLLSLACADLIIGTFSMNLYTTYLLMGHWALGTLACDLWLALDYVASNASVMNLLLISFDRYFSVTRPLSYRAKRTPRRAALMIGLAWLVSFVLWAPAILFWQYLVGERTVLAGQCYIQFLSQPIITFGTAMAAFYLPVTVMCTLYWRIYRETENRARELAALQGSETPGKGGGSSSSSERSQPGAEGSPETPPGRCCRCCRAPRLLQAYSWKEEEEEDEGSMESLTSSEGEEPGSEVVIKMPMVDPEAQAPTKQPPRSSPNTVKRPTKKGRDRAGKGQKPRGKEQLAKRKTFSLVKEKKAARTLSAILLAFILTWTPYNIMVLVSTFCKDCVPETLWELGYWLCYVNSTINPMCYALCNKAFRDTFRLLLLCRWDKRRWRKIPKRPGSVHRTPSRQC
test_protocol: M1 FLIPR assay: intracellular calcium, potentiation of acetylcholine EC20
Type: cell-based
condition_details: M1 activity in a FLIPR assay; Table 3, Examples 1-12; read-out: M1 Potential
pEC50: −log10 of the molar value.
parameter_measured: pEC50

* COc1c(C(=O)N[C@H]2CCCC[C@@H]2O)cc(Cc2ccc(-n3cccn3)nc2)c2ccccc12 | 7.09
* COc1ccc(Cc2cc(C(=O)O)c(OC)c3ccccc23)cc1 | 5.48
* COc1c(C(=O)N[C@H]2CCCC[C@@H]2O)cc(Cc2ccc(C)nc2)c2ccccc12 | 6.92
* O=C(N[C@H]1CCCC[C@@H]1O)c1cc(Cc2ccc(-n3cccn3)nc2)c2ccccc2c1O | 5.33
* CCc1ccc(Cc2cc(C(=O)N[C@H]3CCCC[C@@H]3O)c(OC)c3ccccc23)cn1 | 6.72

[P] COc1c(C(=O)N[C@H]2CCCC[C@@H]2O)cc(Cc2ccc(Cl)nc2)c2ccccc12
[Q] COc1c(C(=O)O)cc(Cc2ccc(-n3cccn3)cc2)c2ccccc12
[R] CCOc1c(C(=O)N[C@H]2CCCC[C@@H]2O)cc(Cc2ccc(Cl)nc2)c2ccccc12
[S] COc1c(C(=O)N[C@H]2CCOC[C@@H]2O)cc(Cc2ccc(Cl)nc2)c2ccccc12
[T] COc1c(C(=O)N[C@H]2CCCC[C@@H]2O)cc(CN2CCN(c3cnn(C)c3)CC2)c2ccccc12
Exam item: Hey, can you sort those compounds up there by pEC50, smallest first? Answer by naming the labels in the order asked.
Marked response: T, R, Q, P, S
